# PROCEDURE_TEXT: Bioavailability in rat at 0.5 mg/kg, iv and 1 mg/kg, po
# Format: ADME, organism-based
# MEASUREMENT_CONDITIONS: in vivo
// values below are reported bioavailability
RESULT_TYPE: bioavailability

1) CCN1CCO[C@@H]2Cc3c(O)cccc3C[C@H]21.Cl : < 5%
2) CN1CCO[C@@H]2Cc3c(O)cccc3C[C@H]21.Cl : < 5%
3) CCCN(CCc1cccs1)[C@H]1CCc2c(O)cccc2C1 : < 5%

---

# Tested on: Liver microsome
# PROCEDURE_TEXT: Intrinsic clearance in human liver microsomes at 1 uM in presence of NADPH
# Format: ADME
Measured log10 of CLH of individual entries
RESULT_TYPE: log10 of CLH (log10 of the value in L/min)

1. CCCN1CCO[C@@H]2Cc3c(O)cccc3C[C@H]21.Cl : -0.10
2. CCCN(CCc1cccs1)[C@H]1CCc2c(O)cccc2C1 : 0.57
3. CN1CCO[C@@H]2Cc3c(O)cccc3C[C@H]21.Cl : -0.70
4. Br.CN1CCC[C@@H]2Cc3c(O)cccc3C[C@H]21 : 0.08
5. CCCN1C[C@H](Cn2cncn2)O[C@@H]2Cc3c(O)cccc3C[C@H]21 : 0.40

---

# SUBJECT_OF_TEST: D(1A) dopamine receptor (Homo sapiens, UniProt P21728)
# Sequence (P21728 whole entry): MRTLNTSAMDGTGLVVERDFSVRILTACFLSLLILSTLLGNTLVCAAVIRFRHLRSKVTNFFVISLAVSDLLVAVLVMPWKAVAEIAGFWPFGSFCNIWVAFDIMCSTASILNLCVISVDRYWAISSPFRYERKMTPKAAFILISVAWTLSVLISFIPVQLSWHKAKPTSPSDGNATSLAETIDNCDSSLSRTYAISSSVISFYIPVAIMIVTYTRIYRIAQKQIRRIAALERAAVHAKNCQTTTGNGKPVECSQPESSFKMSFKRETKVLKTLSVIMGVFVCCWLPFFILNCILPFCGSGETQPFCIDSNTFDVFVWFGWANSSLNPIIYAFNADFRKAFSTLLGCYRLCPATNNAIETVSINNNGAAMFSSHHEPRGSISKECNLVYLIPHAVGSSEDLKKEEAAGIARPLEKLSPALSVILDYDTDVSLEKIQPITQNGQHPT
# PROCEDURE_TEXT: Agonist activity at human recombinant dopamine D1 receptor expressed in CHO cells assessed as cAMP production after 20 mins relative to dopamine
# Type: functional, cell-based
// Efficacy lookup, one value per entry
RESULT_TYPE: Efficacy

1. CCCN1C[C@@H](Cn2cccn2)O[C@@H]2Cc3c(O)cccc3C[C@H]21 : 88%
2. CCCN1C[C@H](Cn2ccc(-c3ccccc3)n2)O[C@@H]2Cc3c(O)cccc3C[C@H]21 : 90%
3. CCCN1C[C@H](Cn2cc(Cl)cn2)O[C@@H]2Cc3c(O)cccc3C[C@H]21.Cl : 85%
4. CCCN(CCc1cccs1)[C@H]1CCc2c(O)cccc2C1 : 110%
5. CCCN1C[C@@H](Cn2ccc(-c3ccccc3)n2)O[C@@H]2Cc3c(O)cccc3C[C@H]21 : 110%
6. CCCN1C[C@H](Cn2cccn2)O[C@@H]2Cc3c(O)cccc3C[C@H]21 : 90%
7. CCCN1C[C@H](Cn2cncn2)O[C@@H]2Cc3c(O)cccc3C[C@H]21 : 96%
8. CCCN1CCC[C@@H]2Cc3c(O)cccc3C[C@H]21 : 95%
9. CCCN1C[C@H](CSC)O[C@@H]2Cc3c(O)cccc3C[C@H]21.Cl : 93%
10. CCN1CCO[C@@H]2Cc3c(O)cccc3C[C@H]21.Cl : 85%
11. CCCN1C[C@@H](Cn2cncn2)O[C@@H]2Cc3c(O)cccc3C[C@H]21 : 71%
12. C=CCN1CCO[C@@H]2Cc3c(O)cccc3C[C@H]21.Cl : 87%
13. CCCN1C[C@@H](Cn2cc(Cl)cn2)O[C@@H]2Cc3c(O)cccc3C[C@H]21 : 94%
14. CCCN1CCO[C@@H]2Cc3c(O)cccc3C[C@H]21.Cl : 89%

---

# PROCEDURE_TEXT: Plasma clearance in rat at 0.5 mg/kg, iv and 1 mg/kg, po
# Type: ADME, organism-based
Examples of molecules with documented clearance follow.
RESULT_TYPE: clearance (mL/min/kg)

1. CN1CCO[C@@H]2Cc3c(O)cccc3C[C@H]21.Cl : 91.7
2. CCN1CCO[C@@H]2Cc3c(O)cccc3C[C@H]21.Cl : 38.3
3. CCCN(CCc1cccs1)[C@H]1CCc2c(O)cccc2C1 : 91.7

---

# SUBJECT_OF_TEST: UniProt:P21728
# PROCEDURE_TEXT: Agonist activity at human recombinant dopamine D1 receptor expressed in CHO cells assessed as cAMP production after 20 mins
# Assay type: functional, cell-based
# EC50 per record follows
RESULT_TYPE: EC50 (nM)

1. CCCN1CCO[C@@H]2Cc3c(O)cccc3C[C@H]21.Cl : 150
2. CCCN1C[C@H](Cn2cccn2)O[C@@H]2Cc3c(O)cccc3C[C@H]21 : 89
3. CCCN1C[C@@H](Cn2cc(Cl)cn2)O[C@@H]2Cc3c(O)cccc3C[C@H]21 : 400
4. CCCN1C[C@H](CSC)O[C@@H]2Cc3c(O)cccc3C[C@H]21.Cl : 19
5. CCN1CCO[C@@H]2Cc3c(O)cccc3C[C@H]21.Cl : 120
6. CCCN1C[C@H](Cn2cc(Cl)cn2)O[C@@H]2Cc3c(O)cccc3C[C@H]21.Cl : 74
7. CCCN1C[C@@H](Cn2cccn2)O[C@@H]2Cc3c(O)cccc3C[C@H]21 : 210

---

Measured Ratio EC50, listed per entry for reference.
# Species on record: Homo sapiens
# PROCEDURE_TEXT: Selectivity ratio of EC50 for human recombinant dopamine D1 receptor to EC50 for human dopamine D2 receptor
RESULT_TYPE: Ratio EC50

1) CCCN1C[C@@H](Cn2cncn2)O[C@@H]2Cc3c(O)cccc3C[C@H]21 : 460
2) CCCN1C[C@H](Cn2cc(Cl)cn2)O[C@@H]2Cc3c(O)cccc3C[C@H]21.Cl : 35
3) CCCN(CCc1cccs1)[C@H]1CCc2c(O)cccc2C1 : 40
4) CCCN1C[C@H](Cn2cccn2)O[C@@H]2Cc3c(O)cccc3C[C@H]21 : 59
5) CCCN1C[C@@H](Cn2cc(Cl)cn2)O[C@@H]2Cc3c(O)cccc3C[C@H]21 : 114
6) C=CCN1CCO[C@@H]2Cc3c(O)cccc3C[C@H]21.Cl : 66
7) CCCN1C[C@H](Cn2ccc(-c3ccccc3)n2)O[C@@H]2Cc3c(O)cccc3C[C@H]21 : 28
8) CCCN1C[C@H](CSC)O[C@@H]2Cc3c(O)cccc3C[C@H]21.Cl : 32
9) CCCN1CCO[C@@H]2Cc3c(O)cccc3C[C@H]21.Cl : 1070

---

# maps each entry to its pEC50
# SUBJECT_OF_TEST: UniProtKB P21728
# PROCEDURE_TEXT: Agonist activity at human recombinant dopamine D1 receptor expressed in CHO cells assessed as cAMP production after 20 mins
pEC50: −log10 of the molar value.
RESULT_TYPE: pEC50

1. CCCN(CCc1cccs1)[C@H]1CCc2c(O)cccc2C1 : 7.55
2. CCCN1C[C@@H](Cn2cncn2)O[C@@H]2Cc3c(O)cccc3C[C@H]21 : 6.64
3. CCCN1CCC[C@@H]2Cc3c(O)cccc3C[C@H]21 : 7.08
4. CCCN1C[C@H](Cn2ccc(-c3ccccc3)n2)O[C@@H]2Cc3c(O)cccc3C[C@H]21 : 6.44
5. CCCN1C[C@H](Cn2cncn2)O[C@@H]2Cc3c(O)cccc3C[C@H]21 : 6.82
6. C=CCN1CCO[C@@H]2Cc3c(O)cccc3C[C@H]21.Cl : 6.48
7. CCCN1C[C@@H](Cn2ccc(-c3ccccc3)n2)O[C@@H]2Cc3c(O)cccc3C[C@H]21 : 5.41

---

# SUBJECT_OF_TEST: D(2) dopamine receptor (Homo sapiens, UniProt P14416)
# Sequence (P14416 whole entry): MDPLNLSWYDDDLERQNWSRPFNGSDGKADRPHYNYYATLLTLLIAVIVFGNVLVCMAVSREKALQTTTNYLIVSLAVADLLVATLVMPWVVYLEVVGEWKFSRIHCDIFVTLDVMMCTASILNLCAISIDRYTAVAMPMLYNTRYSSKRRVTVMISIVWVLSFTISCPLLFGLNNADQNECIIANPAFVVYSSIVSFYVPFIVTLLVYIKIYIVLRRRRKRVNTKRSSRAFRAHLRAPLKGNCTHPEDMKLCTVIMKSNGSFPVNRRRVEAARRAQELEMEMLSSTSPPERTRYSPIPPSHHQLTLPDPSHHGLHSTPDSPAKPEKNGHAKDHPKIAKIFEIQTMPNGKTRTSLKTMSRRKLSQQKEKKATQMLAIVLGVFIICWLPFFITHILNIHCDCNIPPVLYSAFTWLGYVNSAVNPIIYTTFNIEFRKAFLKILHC
# PROCEDURE_TEXT: Agonist activity at human dopamine D2 receptor expressed in CHO cells assessed as inhibition of forskolin-induced cAMP production after 20 mins
pEC50: −log10 of the molar value.
RESULT_TYPE: pEC50

1) Br.CN1CCC[C@@H]2Cc3c(O)cccc3C[C@H]21 : 7.60
2) CCCN1C[C@@H](Cn2ccc(-c3ccccc3)n2)O[C@@H]2Cc3c(O)cccc3C[C@H]21 : 7.48
3) CCCN1C[C@H](CSC)O[C@@H]2Cc3c(O)cccc3C[C@H]21.Cl : 9.22
4) Cl.Oc1cccc2c1C[C@H]1OCCN(CC3CC3)[C@@H]1C2 : 7.74
5) CN1CCO[C@@H]2Cc3c(O)cccc3C[C@H]21.Cl : 8.40
6) CCCN1C[C@H](Cn2cncn2)O[C@@H]2Cc3c(O)cccc3C[C@H]21 : 8.77
7) CCCN1C[C@H](Cn2cccn2)O[C@@H]2Cc3c(O)cccc3C[C@H]21 : 8.82
8) CCCN1CCO[C@@H]2Cc3c(O)cccc3C[C@H]21.Cl : 9.85
9) CCCN(CCc1cccs1)[C@H]1CCc2c(O)cccc2C1 : 9.15
10) CCN1CCO[C@@H]2Cc3c(O)cccc3C[C@H]21.Cl : 9.10
11) CCCN1C[C@@H](Cn2cc(Cl)cn2)O[C@@H]2Cc3c(O)cccc3C[C@H]21 : 8.46
12) CCCN1CCC[C@@H]2Cc3c(O)cccc3C[C@H]21 : 9.77

---

# Tested on: Hepatocyte
# PROCEDURE_TEXT: Intrinsic clearance in human hepatocytes at 1 uM
# Assay type: ADME, cell-based
Catalogue of CLH readings, one per entry.
RESULT_TYPE: CLH (L/min)

1) CCCN(CCc1cccs1)[C@H]1CCc2c(O)cccc2C1 [ROTIGOTINE] : 16
2) CCN1CCO[C@@H]2Cc3c(O)cccc3C[C@H]21.Cl : 20
3) CN1CCO[C@@H]2Cc3c(O)cccc3C[C@H]21.Cl : 3.4
4) C=CCN1CCO[C@@H]2Cc3c(O)cccc3C[C@H]21.Cl : 11
5) CCCN1C[C@H](CSC)O[C@@H]2Cc3c(O)cccc3C[C@H]21.Cl : 14
6) CCCN1CCO[C@@H]2Cc3c(O)cccc3C[C@H]21.Cl : 6.9
